Below are IC50 measurements against Caspase-1 (Homo sapiens) drawn from the literature.
Numeric only. Scale: nM

Here is how some molecules turned out for IC50.
Molecule: N#CC(C#N)=C1C(=O)N(Cc2ccc(OCCF)cc2)c2ccc(S(=O)(=O)N3CCC[C@H]3COc3cccnc3)cc21
System name: Caspase-1 (Homo sapiens)
IC50 [nM]: 3500
--
Molecule: CC(C)[C@H](CC(=O)NCCNc1cccc(Cl)c1)C(=O)N[C@H](C=O)CC(=O)O
System name: Caspase-1 (Homo sapiens)
IC50 [nM]: 11.2
--
Molecule: CC(=O)N[C@@H](Cc1ccc(O)cc1)C(=O)N[C@H](C(=O)N[C@@H](C)C(=O)N[C@@H](CC(=O)O)C(=O)CCCCCc1ccccc1)C(C)C
System name: Caspase-1 (Homo sapiens)
IC50 [nM]: 78
--
Molecule: O=C1C[C@H](NC(=O)[C@@H]2CN(S(=O)(=O)c3ccccc3)C[C@@H]3CCCC[C@H](NC(=O)c4nccc5ccccc45)C(=O)N32)C(O)O1 (stereo partly specified)
System name: Caspase-1 (Homo sapiens)
IC50 [nM]: 1
--
Molecule: Cc1c(CCNC(=O)C[C@H](C(=O)N[C@H](C=O)CC(=O)O)C(C)C)c2ccccc2n1C
System name: Caspase-1 (Homo sapiens)
IC50 [nM]: 42.5
--
Molecule: CCOc1ccc(/C=C/C(=O)OC)cc1CC(=O)N[C@H](C(=O)N[C@@H](CC(=O)O)C(=O)CSCc1c(F)cccc1Cl)C(C)C
System name: Caspase-1 (Homo sapiens)
IC50 [nM]: 1800

Please tell me: IC50 of O=C1C[C@H](NC(=O)[C@@H]2COC[C@@H]3C/C=C\C[C@H](NC(=O)c4cccc(Cl)c4)C(=O)N32)C(O)O1 (stereo partly specified) , system Caspase-1 (Homo sapiens)?
7

Please tell me: IC50 of O=C[C@@H](NS(=O)(=O)c1ccccc1Oc1ccc(-c2ccc(C(=O)O)cc2)cc1)C(=O)O , system Caspase-1 (Homo sapiens)?
58000

Please tell me: IC50 of O=C1C[C@H](NC(=O)[C@@H]2CN(S(=O)(=O)c3ccccc3)C[C@@H]3CCCC[C@H](NC(=O)c4ccc5ccccc5c4)C(=O)N32)C(O)O1 (stereo partly specified) , system Caspase-1 (Homo sapiens)?
1
